Reference source for all entries: patent US10179771B2

- System Tested: Recombinant human JAK2 catalytic domain (Homo sapiens, UniProt O60674)
- Construct: Recombinant human JAK2 catalytic domain (amino acids 808-1132; catalog number PV4210); GST; purchased Invitrogen PV4210
- Sequence (O60674 808-1132): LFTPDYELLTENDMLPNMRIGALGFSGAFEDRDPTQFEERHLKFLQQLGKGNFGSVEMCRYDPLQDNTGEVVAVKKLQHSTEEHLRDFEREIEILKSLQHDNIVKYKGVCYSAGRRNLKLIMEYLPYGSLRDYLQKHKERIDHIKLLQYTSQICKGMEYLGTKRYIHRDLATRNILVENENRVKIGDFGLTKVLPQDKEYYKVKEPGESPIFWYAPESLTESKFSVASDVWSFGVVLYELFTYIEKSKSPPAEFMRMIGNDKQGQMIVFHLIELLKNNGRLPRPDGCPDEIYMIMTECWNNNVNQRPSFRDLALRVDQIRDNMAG
- Assay Procedure: JAK2 inhibition assay (polyGT substrate / Ulight-JAK1 peptide assay)
- Type: biochemical
- Test Parameters: Illustrative Compounds of the invention (Table VII)
For each entry below, report its IC50 value.

[[record]]
smiles_code = "CCc1cc(C#N)cc(F)c1N(C)c1cc(NC(=O)C2CC2)c2ncn(C)c2c1"
assay_metric = "IC50"
result = "0.1 to 50 nM"


Batch lookup, IC50 per entry.
1. CCc1cc(C#N)cc(F)c1Nc1cc(NC(=O)C2CC2)c2ncn(C)c2c1
2. Cc1cc(S(C)(=O)=O)ccc1N(C)c1cc(NC(=O)[C@H]2C[C@H]2F)c2ncn(C)c2c1
3. Cc1cc(C(N)=O)ncc1Oc1cc(NC(=O)[C@H]2C[C@H]2F)c2ncn(C)c2c1

["0.1 to 50 nM", "50 to 100 nM", "50 to 100 nM"]

Batch lookup, IC50 per entry.
1. CCc1cc(C#N)ncc1N(C)c1cc(NC(=O)C2CC2)c2ncn(C)c2c1
2. CN(c1cc(NC(=O)[C@H]2C[C@H]2F)c2ncn(C)c2c1)c1c(F)cc(C#N)cc1Cl
3. CN(c1cc(NC(=O)[C@H]2C[C@H]2F)c2ncn(C)c2c1)c1ccc(C#N)nc1F
4. Cc1cc(C#N)ncc1Oc1cc(NC(=O)N2CC(O)C2)c2ncn(C)c2c1

["0.1 to 50 nM", "0.1 to 50 nM", "50 to 100 nM", "> 500 nM"]

Batch lookup, IC50 per entry.
1. CNc1cc(Oc2cnc(C#N)cc2C)cc2c1ncn2C
2. CCc1cc(C#N)ccc1Oc1cc(NC(=O)[C@H]2C[C@H]2F)c2ncn(C)c2c1

> 500 nM
0.1 to 50 nM
